FYI, the data here is from ChEMBL document CHEMBL5154820.

assay_comment: Octanol-water partition coefficient, logP of the compound incubated overnight by HPLC analysis
Assay type: physicochemical
property_measured: logP
Write the number on its own, no unit after it.

1. CCOc1ccc(-c2cncnc2-c2cc(OC)c(OC)c(OC)c2)cc1Cl    2.36

Shifting focus to the molecule that follows.
Input `COc1ccc(/C=C\c2cc(OC)c(OC)c(OC)c2)cc1O` . Output logP: 2.04

###

Recorded measurements of IC50, one per entry
assayed_target: Tubulin (Sus scrofa, UniProt P02554+P02550)
assay_comment: Inhibition of pig brain tubulin polymerization by spectrophotometeric analysis
Parameters: species or system Sus scrofa domesticus
Use µM as the unit, but write only the number.

Here's what some known entries look like.
1) CCOc1ccc(-c2cncnc2-c2cc(OC)c(OC)c(OC)c2)cc1F    17.1
2) COc1cc(-c2ncncc2-c2ccc(SC)cc2)cc(OC)c1OC    9.3

Shifting focus to the compound that follows.
Log: Tubulin (Sus scrofa, UniProt P02554+P02550), compound `COc1ccc(-c2cncnc2-c2cc(OC)c(OC)c(OC)c2)cc1O` , IC50 = 13.4
